Reported pIC50 on Tyrosine-protein kinase JAK3 (Homo sapiens, UniProt P52333) for assorted compounds, compiled from publications.
pIC50: −log10 of the molar value.
observable: pIC50

structure_smiles_string=C=CC(=O)Nc1cccc(Nc2nc(Nc3cccc(OCCCNC(=O)OC(C)(C)C)c3)ncc2C)c1 recorded_measurement="> 8.00"
structure_smiles_string=CCC(CC)n1cc(-c2nc(-c3cnn(CCN4CC(F)C4)c3)cn3nccc23)cn1 recorded_measurement="5.00 to 6.00"
structure_smiles_string=CCn1nc(C(=O)NCCC(F)(F)F)c2c1CCN(c1ncnc3[nH]ccc13)C2 recorded_measurement="> 7.00"
structure_smiles_string=CCC(=O)c1cnc(Nc2ccc(O[C@@H]3CCN(C)C3)cn2)cc1Nc1cccc(-c2ncc(F)cn2)c1OC recorded_measurement="6.30 to 7.30"

* * *

Reported IC50 on UniProt P52333 for assorted molecules, compiled from publications.
observable: IC50

molecule=CN(C)C(=O)c1ccc(-c2cc3c(N[C@@H]4CC[C@](C)(N)C4(C)C)c(C(N)=O)cnn3c2)cc1 recorded_measurement="0.8 nM"
molecule=CN(C)C/C=C/C(=O)N1CC[C@@H](n2nc(-c3ccc(Oc4ccccc4)cc3)c3cncnc32)C1 recorded_measurement="> 500 nM"
molecule=Cc1cc(NC(=O)c2cccc(Oc3ccnc4[nH]nc(N[C@H]5CCN(C(=O)c6ccc(F)cc6)C5)c34)c2)ccc1C(C)C recorded_measurement="> 10000 nM"
molecule=CC(=O)N1CCN(C/C=C/C(=O)Nc2cccc(Nc3cc(Nc4cccc(C)c4)ncn3)c2)CC1 recorded_measurement="1000 to 10000 nM"
molecule=Cc1cnc(Nc2ccc(N3CCC(CO)CC3)cc2)nc1-c1ccc(C(=O)NCC#N)cc1 recorded_measurement="< 100 nM"
molecule=C#CCCNc1nc(Nc2ccc3c(c2)NC[C@H](O)CO3)ncc1C(N)=O recorded_measurement="10 to 100 nM"
molecule=CC(C)C[C@@H](C)n1cc(-c2nc(-c3cnn(C[C@@H](O)CO)c3)cn3nccc23)cn1 recorded_measurement="1000 to 10000 nM"
molecule="C[C@@H](Nc1c(C(N)=O)cnn2cc(-c3cccc(C(O)CO)c3)cc12)C1CC1 (mixture of isomers)" recorded_measurement="1 nM"
molecule="Cc1ccc(NC(=O)c2cc(N3CCC(O)C3)cc(C(F)(F)F)c2)cc1-c1ccc2c(c1)[nH]c1ncncc12 (stereo not shown)" recorded_measurement="≤ 500 nM"
molecule=CN(c1ncnc2[nH]ccc12)N1CCC(NC(=O)CC#N)CC1 recorded_measurement="100 to 1000 nM"
molecule=Cn1cc(-c2cc3ncc(Cl)n3c(-c3cnn(C4(CC#N)CN(S(=O)(=O)C(F)(F)F)C4)c3)n2)cn1 recorded_measurement="100 to 1000 nM"
molecule=Cc1ccsc1C(=O)N1CCC2(CCC(N(C)c3ncnc4[nH]ccc34)CC2)CC1 recorded_measurement="1000 to 10000 nM"
molecule=CC#CC(=O)N1CC[C@@H](n2nc(-c3ccc(Oc4ccccc4)cc3)c3cncnc32)C1 recorded_measurement="> 500 nM"
molecule=Cc1ccnc(NC(=O)c2ccc(Oc3ccnc4[nH]nc(N[C@@H]5CCCN(C(=O)C6(C)COC6)C5)c34)cc2)c1 recorded_measurement="> 10000 nM"
molecule=CN(CCNc1ncnc2[nH]ccc12)S(=O)(=O)c1c(F)c(F)c(F)c(F)c1F recorded_measurement="1000 to 10000 nM"
molecule=CS(=O)(=O)N1CCC[C@@H](n2c(=O)[nH]c3cnc(-c4cnc5ccc(F)cn45)nc32)C1 recorded_measurement="100 to 1000 nM"
molecule=C#CCN1CC(CC#N)(n2cc(-c3nc(-c4cnn(C)c4)cc4nccn34)cn2)C1 recorded_measurement="> 1000 nM"
molecule="CCC(=O)c1cnc(Nc2cnc(C(NC)C(F)(F)F)cn2)cc1Nc1cccc(-c2ncn(C)n2)c1OC (stereo not shown)" recorded_measurement="≥ 500 nM"
molecule=CS(=O)(=O)c1cccc(-c2cnc3[nH]ccc3c2N[C@@H]2CCCN(C(=O)CC#N)C2)c1 recorded_measurement="100 to 1000 nM"
molecule=N#CCC1(n2cc(-c3nc(-c4ccc(C(F)(F)F)cc4)cc4nccn34)cn2)CN(S(=O)(=O)C(F)(F)F)C1 recorded_measurement="> 1000 nM"
molecule=C=CCC1(n2cc(-c3nc(-c4cnn(C)c4)cc4nccn34)cn2)CN(S(=O)(=O)C(F)(F)F)C1 recorded_measurement="100 to 1000 nM"
molecule=CCCS(=O)(=O)N1CC(CC#N)(n2cc(-c3nc(-c4cnn(C)c4)cc4nccn34)cn2)C1 recorded_measurement="> 1000 nM"
molecule=CC(C)S(=O)(=O)N1CC(CCF)(n2cc(-c3nc(-c4cnn(C)c4)cc4nccn34)cn2)C1 recorded_measurement="> 1000 nM"
molecule=C=CC(=O)N1CC[C@@H](n2nc(-c3ccc(Oc4ccccc4)cc3F)c3cncnc32)C1 recorded_measurement="> 500 nM"
molecule=Cn1cc(-c2cc3nccn3c(-c3cnn(C4(CC#N)CN(c5ncccn5)C4)c3)n2)cn1 recorded_measurement="> 1000 nM"
molecule="CC[C@H](Cn1ccc2cnc(Nc3cnn(C4CC(C)(C)OC4=O)c3)nc21)C(C)C (stereo partly shown)" recorded_measurement="< 100 nM"
molecule=CCC(=O)Nc1ccc(CNc2nc(Nc3ccc(N4CCN(C)CC4)cc3OC)ncc2Cl)cc1 recorded_measurement="5420 nM"
molecule="CCC(Cn1ccc2cnc(Nc3cnn(CC(=O)OC(C)C)c3)nc21)CC(F)(F)F (stereo not shown)" recorded_measurement="< 100 nM"
molecule=CCC(CC)n1cc(-c2nc(-c3cnn(C4CN(C(=O)N(C)C)C4)c3)cn3nccc23)cn1 recorded_measurement="1000 to 10000 nM"
molecule=C=CC(=O)Nc1cccc(Oc2nc(Nc3ccc(CN4CCC(N5CCOCC5)CC4)cc3)nc3ccsc23)c1 recorded_measurement="≤ 50 nM"
molecule=C#Cc1ccc(C(=O)N2CC3(CC(N(C)c4ncnc5[nH]ccc45)C3)C2)cc1C recorded_measurement="1000 to 10000 nM"

* * *

pIC50: −log10 of the molar value.
Reported pIC50 on Tyrosine-protein kinase JAK3 (Homo sapiens, UniProt P52333) for assorted molecules, compiled from publications.
observable: pIC50

molecule=C=CC(=O)N1CCC[C@@H](Nc2nc(Nc3cc(C)no3)nc3ccsc23)C1 recorded_measurement="7.00 to 8.00"
molecule=N#CCC1(n2cc(-c3nc(-c4cnn(C5COC5)c4)cc4ncc(Cl)n34)cn2)CN(CC(F)(F)F)C1 recorded_measurement="6.00 to 7.00"
molecule="CO[C@H]1CNc2cc(Nc3ncc(C(N)=O)c(NC4C5CC6CC4CC(O)(C6)C5)n3)ccc2OC1 (stereo partly shown)" recorded_measurement="> 8.00"
molecule=CCC(CC)n1cc(-c2nc(-c3cnn(CCN(C)S(C)(=O)=O)c3)cn3nccc23)cn1 recorded_measurement="5.00 to 6.00"
molecule=CCCOC(=O)c1cnc2[nH]ccc2c1N[C@@H]1CCCN(C(=O)CC#N)C1 recorded_measurement="≥ 8.00"
molecule=CCC(=O)c1cnc(Nc2ccc(CN3CCCC3)nn2)cc1Nc1cccc(-c2ncn(C)n2)c1OC recorded_measurement="≤ 6.30"
molecule=Cc1nc2cnc(-n3cnc4ccc(Cl)cc43)nc2n1C1CCOCC1 recorded_measurement="> 7.00"
molecule=CC(C)(C)NS(=O)(=O)c1cccc(N2CCc3cnc(Nc4ccc(OCCN5CCSCC5)cc4)nc32)c1 recorded_measurement=6.00
molecule=O=c1[nH]c2c(N[C@@H]3CCC[C@@H]3O)nc(-n3cnc4ccc(F)cc43)nc2n1C1CCOCC1 recorded_measurement="> 7.00"
molecule=C=CC(=O)N1CCC[C@H]1Cn1nc(-c2ccc(Oc3ccccc3)cc2)c2cncnc21 recorded_measurement="< 6.30"
molecule="CN(c1ncnc2[nH]ccc12)C1CN(C(=O)CC#N)CC12CC2 (racemic)" recorded_measurement=6.16
molecule=CCOC(=O)[C@H]1CCCN(Nc2c(C(N)=O)cnc3[nH]ccc23)C1 recorded_measurement=8.06
molecule=CN(c1ncnc2[nH]ccc12)N1CCCN(C(=O)CC(F)(F)F)CC1 recorded_measurement="< 6.00"
molecule=Cc1cccc(Nc2nc(Nc3cccc(NC(=O)/C=C/CN(C)C)c3)ncc2F)c1 recorded_measurement="> 8.00"
molecule=O=C(NCCC(F)(F)F)c1noc2c1CN(c1ncnc3[nH]ccc13)CC2 recorded_measurement="> 7.00"
molecule=CCC(=O)c1cnc(Nc2ccc(CN(C)C3CC3)cn2)cc1Nc1cccc(-c2ncn(C)n2)c1OC recorded_measurement="≤ 6.30"
molecule="CCC(C(=O)Nc1nccc2c(-c3nc(Nc4cccc(S(C)(=O)=O)c4F)ncc3C)c[nH]c12)N1CC2CCC(C1)N2C (stereo not shown)" recorded_measurement="5.00 to 6.30"
molecule=CCC(CC)n1cc(-c2nc(-c3cnn(C4CS(=O)(=O)C4)c3)cn3nccc23)cn1 recorded_measurement="5.00 to 6.00"
molecule=CCC(CC)n1cc(-c2nc(-c3cnn(C4CN(C(=O)NC)C4)c3)cn3nccc23)cn1 recorded_measurement="5.00 to 6.00"
molecule="CC[C@@H](C1CCC1)n1cc(-c2nc(-c3cnn(C[C@@H](O)CO)c3)cn3nccc23)cn1 (single isomer, unassigned)" recorded_measurement="5.00 to 6.00"
molecule=Cc1cnc2nc1NCCCCCNC(=O)c1ccc(cc1C(=O)O)-c1cnc(F)c(c1)N2 recorded_measurement="6.00 to 7.00"
molecule=C[C@@H]1C[C@H](Nc2c(-c3ccncn3)cnc3[nH]ccc23)CN(C(=O)CC#N)C1 recorded_measurement="7.00 to 8.00"
molecule=C[C@]1(O)CC[C@@H](Nc2c(C(N)=O)cnn3cc(-c4cncnc4N)cc23)CC1 recorded_measurement=7.96
molecule="CCC(Cn1ccc2cnc(Nc3cnn(CCC(=O)O)c3)nc21)C(C)C (stereo not shown)" recorded_measurement="> 7.00"
molecule=C=CC(=O)N1CCC[C@@H](n2nc(-c3ccc(Oc4ccccc4)c(C)c3)c3cncnc32)C1 recorded_measurement="< 6.30"
molecule=CCN1CCC(CC#N)(n2cc(-c3nc(-c4cnn(C)c4)cc4nccn34)cn2)CC1 recorded_measurement="< 6.00"
molecule=CCOC(=O)Cn1cc(Nc2ncc3ccn(C[C@@H]4CCC[C@@H](OC)C4)c3n2)cn1 recorded_measurement="> 7.00"
molecule=C=CC(=O)Nc1ccc(CN2C(=O)NCc3cnc(Nc4ccc(N5CCN(C)CC5)cc4)nc32)cc1 recorded_measurement=8.92
molecule=N#Cc1ccc2ncn(-c3ncc4nc(Nc5ccc(S(N)(=O)=O)cc5)n(C5CCOCC5)c4n3)c2c1 recorded_measurement="> 7.00"
molecule="CC(C)OC(=O)c1cnc2[nH]ccc2c1-c1cnn([C@H](CC#N)C2CCCC2)c1 (single isomer, unassigned; enantiomer 1)" recorded_measurement="7.00 to 8.00"
molecule=CC(C)n1cc(-c2cc3nccn3c(-c3cnn(C4(CC#N)CN(S(=O)(=O)C(F)(F)F)C4)c3)n2)cn1 recorded_measurement="6.00 to 7.00"
